B1: library; a variant is named by its letters at N, in order (parent)
chain: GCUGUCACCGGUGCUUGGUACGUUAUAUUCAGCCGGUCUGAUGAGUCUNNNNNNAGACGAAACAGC

Variants of: B1
assay_notes: normalized RNA/DNA level with ligand (relative to sTRSVctl = 100) (log10 (% of sTRSVctl)); HEK293T overexpressing SLC46A1; ligand concentration (+) RNA-Seq: 6 mM; higher = less ribozyme self-cleavage, higher mRNA level
test_context: with (6R,S)-folinic acid; ligand present: yes
The following variants are shown together with reported normalized RNA/DNA level with ligand (log10) values.
measure: normalized RNA/DNA level with ligand (log10)

CUAGAU :: 2
CGUUCC :: 2.03
AGGCAC :: 2.02
UCCGCG :: 1.96
UUUUCA :: 2.02
CAAUUU :: 2
UUCCAA :: 2
GAAGCC :: 2.03
AUGCCC :: 2.02
CCACCU :: 2.07
GCUAAC :: 2.01
GGGACC :: 2.04
AGGUAG :: 2
GACGGA :: 2.05
AGUCAG :: 2.02
CCAAAG :: 1.99
AAGGAU :: 1.97
CCCAGG :: 2.01
UCUCCA :: 2.02
GCAGAC :: 2.02
UAUGCG :: 1.96
UAAGGG :: 1.92
